Entry source: patent US20260138990A1

# test system: human CD38 (Homo sapiens)
# assay name: NAD+ cyclase activity assay with human recombinant CD38 protein (ε-NAD fluorescence)
# condition description: 1.9 nM human CD38, substrate ε-NAD, 30 min preincubation, fluorescence 300/410 nm
test readout: IC50

Check out these entries, answers already filled in.
| compound | IC50 |
| --- | --- |
| CC1(F)CC(NC(=O)c2ccc3c(c2)-c2cncn2CCO3)C1 (centres unmarked) [Compound 136A] | 30 to 100 nM |
| O=C(Nc1cnc(OCCCF)nc1)c1ccc2c(c1)-c1cncn1CCO2 [Compound 102A] | < 30 nM |
| COCCS(=O)(=O)N[C@H]1CC[C@H](NC(=O)c2ccc3c(c2)-c2cncn2CCO3)CC1 [Compound 29A] | < 30 nM |
| C[C@@H]1C[C@H](CC(F)(F)F)CC[C@@H]1NC(=O)c1cc(F)c2c(c1)-c1cncn1CCO2 (relative stereo) [Compound 186A] | 30 to 100 nM |
| O=C(N[C@H]1CC[C@@H](OCC(F)(F)F)CC1)c1cc(Cl)c2c(c1)-c1cncn1CCO2 [Compound 158A] | 30 to 100 nM |

// IC50 (human CD38 (Homo sapiens)) for O=C(N[C@H]1CC[C@@H](OC2CC(F)(F)C2)CC1)c1cc(Cl)c2c(c1)-c1cncn1CCO2 [Compound 173A] = 100 to 1000 nM

// IC50 (human CD38 (Homo sapiens)) for O=C(N[C@H]1CC[C@H](OCCC(F)F)CC1)c1ccc2c(c1)-c1cncn1CCO2 [Compound 78A] = 100 to 1000 nM

// IC50 (human CD38 (Homo sapiens)) for O=C(N[C@H]1CC[C@H](OCC(F)(F)F)CC1)c1cc(F)c2c(c1)-c1cncn1CCO2 [Compound 155A] = < 30 nM

* * *

# test system: human CD38 (Homo sapiens)
# Sequence (P28907 1-300): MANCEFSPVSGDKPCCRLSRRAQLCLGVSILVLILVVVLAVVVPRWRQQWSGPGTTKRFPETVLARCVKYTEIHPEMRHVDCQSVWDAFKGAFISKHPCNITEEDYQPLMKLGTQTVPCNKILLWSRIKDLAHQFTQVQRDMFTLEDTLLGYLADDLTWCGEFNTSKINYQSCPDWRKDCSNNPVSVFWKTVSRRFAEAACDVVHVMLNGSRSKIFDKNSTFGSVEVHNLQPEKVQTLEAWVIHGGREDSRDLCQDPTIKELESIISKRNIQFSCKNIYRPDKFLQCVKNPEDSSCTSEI
# assay name: NAD+ cyclase activity assay with human recombinant CD38 protein (ε-NAD fluorescence)
# condition description: 1.9 nM human CD38, substrate ε-NAD, 30 min preincubation, fluorescence 300/410 nm
pIC50: −log10 of the molar value.
// pIC50 lookup, one value per entry

| compound | pIC50 |
| --- | --- |
| CCC(O)(CN[C@H]1CC[C@H](NC(=O)c2ccc3c(c2)-c2cncn2CCO3)CC1)C(F)(F)F (stereo partly shown) [Compound 131A] | > 7.52 |
| O=C(N[C@H]1CC[C@H](CN2CC(F)(F)C2)CC1)c1ccc2c(c1)-c1cncn1CCO2 [Compound 105A] | 7.00 to 7.52 |
| O=C(Nc1ccc2c(n1)OCCO2)c1ccc2c(c1)-c1cncn1CCO2 [Compound 30A] | > 7.52 |

The record that follows has no pIC50 shown yet.
pIC50 measured on COCCO[C@H]1CC[C@H](NC(=O)c2cc3c(c(F)c2F)OCCn2cncc2-3)CC1 [Compound 95A] = > 7.52

* * *

// pIC50 lookup, one value per entry
# test system: UniProt P56528
# assay name: NAD+ cyclase activity assay with mouse recombinant CD38 protein (ε-NAD fluorescence)
# condition description: 0.6 nM mouse CD38, substrate ε-NAD, 30 min preincubation, fluorescence 300/410 nm
# Description: Example 4: NAD^+ Cydase Activity Assay with Human or Mouse Recombinant CD38 Protein The following assay was used to determine the ability of compounds of the invention to inhibit the hydrolysis of NAD^+ by the human or mouse enzyme, CD38. Reaction buffer: 40 mM HEPES/NaOH pH 7.5, 250 mM sucrose, 0.01% Tween Final concentrations: 0.6 nM mouse CD38 (4947-AC, Bio-Techne GmbH) 1.9 nM human CD38 (AVI2404, Bio-Techne GmbH) […] Read-out: Fluorescence intensity (extinction 300 nm/emission 410 nm) […]
pIC50: −log10 of the molar value.

pIC50 measured on O=C(N[C@@H]1CCCOC1)c1ccc2c(n1)-n1cncc1CCO2 [Compound 42A] = 7.00 to 8.00

pIC50 measured on "O=C(N[C@@H]1CCS(=O)(=O)C1)c1ccc2c(c1)-c1cncn1CCO2" = 8.00 to 9.00

pIC50 measured on "O=C(N[C@@H]1CCCOC1)c1ccc2c(c1)-c1cncn1CCO2" = > 9.00

* * *

# test system: human CD38 (Homo sapiens)
# Sequence (P28907 1-300): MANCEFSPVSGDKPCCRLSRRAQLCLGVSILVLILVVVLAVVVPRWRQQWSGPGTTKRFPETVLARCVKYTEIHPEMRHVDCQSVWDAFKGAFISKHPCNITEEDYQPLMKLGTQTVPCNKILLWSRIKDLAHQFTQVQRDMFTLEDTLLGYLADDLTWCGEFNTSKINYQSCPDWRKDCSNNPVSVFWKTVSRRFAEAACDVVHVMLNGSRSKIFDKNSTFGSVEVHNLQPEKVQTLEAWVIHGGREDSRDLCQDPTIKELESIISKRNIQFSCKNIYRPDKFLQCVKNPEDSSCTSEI
# assay name: NAD+ cyclase activity assay with human recombinant CD38 protein (ε-NAD fluorescence)
# condition description: 1.9 nM human CD38, substrate ε-NAD, 30 min preincubation, fluorescence 300/410 nm
pIC50: −log10 of the molar value.
// pIC50 lookup, one value per entry

Check out these entries, answers already filled in.
| compound | pIC50 |
| --- | --- |
| CC(=O)N[C@H]1CC[C@H](NC(=O)c2ccc3c(c2)-c2cncn2CCO3)CC1 [Compound 60A] | 6.00 to 7.00 |
| O=C(N[C@@H]1CCCOC1)c1ccc2c(n1)-n1cnc(c1)CCO2 [Compound 43A] | < 6.00 |
| COCCC(=O)N[C@H]1CC[C@H](NC(=O)c2ccc3c(c2)-c2cncn2CCO3)CC1 [Compound 67A] | 6.00 to 7.00 |

pIC50 measured on O=C(N[C@H]1CC[C@H](OCCC(F)(F)F)CC1)c1ccc2c(c1)-c1cncn1CCO2 [Compound 90A] = > 7.52

pIC50 measured on O=C(Nc1cnc2scnc2c1)c1ccc2c(c1)-c1cncn1CCO2 [Compound 40A] = > 7.52

pIC50 measured on Cn1c(=O)c2cncn2c2cc(C(=O)N[C@@H]3CCCOC3)ccc21 [Compound 16A] = < 6.00

pIC50 measured on CCC1CCC(NC(=O)c2ccc3c(c2)-c2cncn2CCO3)CC1 (stereo not drawn) [Compound 125A] = > 7.52

pIC50 measured on Cc1cc(CC(F)(F)F)ccc1NC(=O)c1cc(Cl)c2c(c1)-c1cncn1CCO2 [Compound 182A] = 7.00 to 7.52

* * *

# test system: mouse CD38 (Mus musculus, UniProt P56528)
# Sequence (P56528 1-304): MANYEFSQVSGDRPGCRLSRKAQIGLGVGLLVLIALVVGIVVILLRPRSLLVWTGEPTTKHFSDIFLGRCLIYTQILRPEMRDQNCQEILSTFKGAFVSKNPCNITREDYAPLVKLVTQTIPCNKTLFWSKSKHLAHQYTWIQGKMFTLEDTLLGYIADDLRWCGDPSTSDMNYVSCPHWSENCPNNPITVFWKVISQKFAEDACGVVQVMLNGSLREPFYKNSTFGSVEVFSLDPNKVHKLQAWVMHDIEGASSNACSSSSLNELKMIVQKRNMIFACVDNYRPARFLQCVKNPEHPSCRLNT
# assay name: NAD+ cyclase activity assay with mouse recombinant CD38 protein (ε-NAD fluorescence)
# condition description: 0.6 nM mouse CD38, substrate ε-NAD, 30 min preincubation, fluorescence 300/410 nm
test readout: IC50

Check out these entries, answers already filled in.
| compound | IC50 |
| --- | --- |
| CC1(NC(=O)c2cc(Cl)c3c(c2)-c2cncn2CCO3)CCCCC1 [Compound 163A] | 1 to 10 nM |
| CNC(=O)[C@H]1CC[C@H](NC(=O)c2ccc3c(c2)-c2cncn2CCO3)CC1 [Compound 17A] | < 1 nM |
| O=C(N[C@H]1CC[C@H](CO)CC1)c1ccc2c(c1)-c1cncn1CCO2 [Compound 65A] | < 1 nM |
| COC(C)(C)CO[C@H]1CC[C@@H](NC(=O)c2ccc3c(c2)-c2cncn2CCO3)CC1 [Compound 128A] | 10 to 100 nM |
| COCCO[C@H]1CC[C@H](NC(=O)c2cc3c(c(C4CC4)c2)OCCn2cncc2-3)CC1 [Compound 50A] | 1 to 10 nM |
| O=C(N[C@H]1CC[C@H](OCCCF)CC1)c1ccc2c(c1)-c1cncn1CCO2 [Compound 80A] | 1 to 10 nM |
| O=C(N[C@@H]1CCC(F)(F)C1)c1cc(F)c2c(c1)-c1cncn1CCO2 [Compound 108A] | < 1 nM |
| COCCNc1nc2ccc(C(=O)N[C@@H]3CCCOC3)cc2n2cncc12 [Compound 27A] | 1 to 10 nM |
| O=C(NC1CC2(CCC2)C1)c1cc(F)c2c(c1)-c1cncn1CCO2 [Compound 159A] | < 1 nM |
| O=C(N[C@H]1CC[C@@H](OCCCF)CC1)c1ccc2c(c1)-c1cncn1CCO2 [Compound 79A] | 10 to 100 nM |

IC50 measured on CC(O)C1CCC(NC(=O)c2ccc3c(c2)-c2cncn2CCO3)CC1 (centres unmarked) [Compound 126A] = 1 to 10 nM

IC50 measured on O=C(N[C@H]1CC[C@@H](O[C@H]2C[C@H](F)C2)CC1)c1ccc2c(c1)-c1cncn1CCO2 [Compound 150A] = > 100 nM

IC50 measured on Cn1ccc(NC(=O)c2ccc3c(c2)-c2cncn2CCO3)cc1=O [Compound 36A] = < 1 nM

IC50 measured on O=C(N[C@@H]1CCCOC1)c1ccc2c(c1)-n1ccnc1CCO2 [Compound 14A] = > 100 nM

IC50 measured on O=C(NC1CC(F)(F)C1)c1cc(Cl)c2c(c1)-c1cncn1CCO2 [Compound 134A] = < 1 nM

IC50 measured on CC(C)(CO[C@H]1CC[C@@H](NC(=O)c2ccc3c(c2)-c2cncn2CCO3)CC1)C(F)(F)F [Compound 121A] = > 100 nM

IC50 measured on O=C(N[C@@H]1CCS(=O)(=O)C1)c1ccc2[nH]c(=O)c3cncn3c2c1 [Compound 12A] = > 100 nM
